Record form. Attribute: pKd. Fill in for each entry.
B1: scFv; the commonest letter at each place (parent)
chain 1: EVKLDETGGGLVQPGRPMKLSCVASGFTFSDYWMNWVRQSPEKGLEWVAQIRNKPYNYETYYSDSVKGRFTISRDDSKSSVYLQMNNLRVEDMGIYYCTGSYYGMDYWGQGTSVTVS
chain 2: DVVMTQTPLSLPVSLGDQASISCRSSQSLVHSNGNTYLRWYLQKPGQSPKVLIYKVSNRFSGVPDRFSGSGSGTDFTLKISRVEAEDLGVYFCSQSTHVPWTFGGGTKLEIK

Variants of: B1
PROCEDURE_TEXT: Kd (Tite-Seq)
CONDITION_SET: with fluorescein; format: scFv 4-4-20, heavy + light
pKd: −log10 of the molar value.

Before answering, review these 10 worked examples.
VARIANT_NOTATION: chain 1 W33I N35W
MEASURED_VALUE: ≤ 5.00
--
VARIANT_NOTATION: chain 1 T28P V37P
MEASURED_VALUE: ≤ 5.00
--
VARIANT_NOTATION: chain 1 S30T V37C
MEASURED_VALUE: 9.34
--
VARIANT_NOTATION: chain 1 M105H Y107G
MEASURED_VALUE: ≤ 5.00
--
VARIANT_NOTATION: chain 1 T28C W33L
MEASURED_VALUE: ≤ 5.00
--
VARIANT_NOTATION: chain 1 S101D D106K
MEASURED_VALUE: ≤ 5.00
--
VARIANT_NOTATION: chain 1 D31Y V37Q
MEASURED_VALUE: 7.23
--
VARIANT_NOTATION: chain 1 G100N D106I
MEASURED_VALUE: ≤ 5.00
--
VARIANT_NOTATION: chain 1 G104Q M105C
MEASURED_VALUE: ≤ 5.00
--
VARIANT_NOTATION: chain 1 G100A Y103L W108G
MEASURED_VALUE: 5.22

Dear colleague, could you send me pKd for each of the items below? Thanks.
1. chain 1 F29M D31I
2. chain 1 N35R W36P
3. chain 1 D31V M34C

A:
1. ≤ 5.00
2. ≤ 5.00
3. ≤ 5.00
